Just for reference, paper PMC7822874 is where these values come from.

experiment.description: in vitro
assay.conditions: human, hepg2 cells
For each of the compounds below, state its CC50 at 48 h.
One number for each entry, in µM.

Prompt line: Give the measured CC50 at 48 h of `CCO.Nc1nc(N)c2cc(Sc3ccc4ccccc4c3)ccc2n1` .
Response line: 27.3

I'm hoping you can list CC50 at 48 h for every compound here, please.
1. CCCCC(=O)NC(c1ccccc1OC)c1ccc2cccnc2c1O (centres unmarked)
2. Cc1ccc(C)c(N2CCN(CCCNC(=O)c3cnn(-c4cccc(Cl)c4)c3C3CCN(C(=O)OC(C)(C)C)CC3)CC2)c1
3. O=C(CC1C(=O)NCCN1Cc1cccc(Oc2ccccc2)c1)NCc1ccco1 (centres unmarked)
4. C=C(C)COc1ccc(-c2n[nH]c(C)c2-c2ccccc2)c(O)c1
5. OC(c1cc(-c2ccc(C(F)(F)F)cc2)nc(C(F)(F)F)c1)C1CCCCN1 (centres unmarked)
6. COc1ccccc1Nc1cnc2ccc(-c3ccc(OC)c(OC)c3)nn12

Response line:
[17.2, 43.2, 0.00432, 43.2, 43.2, 44.4]

---

experiment.description: in vitro
assay.conditions: human, hepg2-a16-cd81egfp cells, % viability
observed.property: viability at 3 µM (%)
Numbers only, in %.

Prompt line: Give the measured viability at 3 µM of N#Cc1nc(Nc2cc(F)cc(F)c2)c2ncn(CC(F)F)c2n1 [MLS002471784] .
Response line: 90

Prompt line: Give the measured viability at 3 µM of Cc1ccc(Nc2cc(C)nc(NCc3ccccc3)n2)cc1 [MLS000574704] .
Response line: 80.6

Prompt line: Give the measured viability at 3 µM of CCCCc1c(C)c(C#N)c2nc3ccccc3n2c1Nc1c(C)n(C)n(-c2ccccc2)c1=O [MLS000555448] .
Response line: 90.2

Prompt line: Give the measured viability at 3 µM of COc1ccc(OC)c(-n2c(S)nnc2-c2ccc(O)cc2O)c1 [MLS000766628] .
Response line: 104

Prompt line: Give the measured viability at 3 µM of CCOc1ccc(CCNC(=O)Nc2ccccc2)cc1OCC [MLS001197603] .
Response line: 99.4

Prompt line: Give the measured viability at 3 µM of Cc1ccc(C(=O)Nc2nc(-c3ccccn3)cs2)cc1[S+](=O)([O-])N1CCOCC1 [NCGC00345210] .
Response line: 29.5

I'm hoping you can list viability at 3 µM for every molecule here, please.
1. CCN1CCN(Cc2ccc(NC(=O)c3cc(NC(=O)c4cc5cccc(OC)c5o4)cc(OC)c3)cc2C(F)(F)F)CC1 [MLS000911573]
2. O=C(c1cc(C(=O)NCCc2ccccc2)c(=O)n(CCc2ccccc2)c1)c1cc(Cl)ccc1O [MLS000402354]
3. CCCC(=O)Nc1sc2c(c1C(=O)Nc1ccccn1)CCCC2 [MLS000765104]

Response line:
94.8
100
97.6

---

experiment.description: in vitro
assay.conditions: human, HepG2-A16-CD81EGFP cells, uninfected
For each of the compounds below, state its viability at 48 h, 3 µM.
One number for each entry, in %.

I'm hoping you can list viability at 48 h, 3 µM for every compound here, please.
1. OC(CNC1CCCCCC1)COc1cccc2ccccc12 (stereo not drawn)
2. Cc1nn2c(c1-c1ccccc1-c1ccccc1)N(Cc1ccc(O)cc1)CCC2
3. Cc1ccc(Cl)cc1N1CCN(Cc2cc3c(cc2O)CCC3)CC1
4. COc1ccc(N2CCN(c3cc(C4CC(N)C4)nc(N)n3)CC2(C)C)cc1 (stereo not drawn)

Response line:
[98, 112, 99, 102]

I'm hoping you can list viability at 48 h, 3 µM for every compound here, please.
1. O=C(CCl)N(c1ccccc1)c1c[nH]c2ccccc12
2. Oc1ccc(Cl)cc1-c1cc(C(F)(F)C(F)F)nc(-c2ccccc2)n1
3. Oc1ccccc1CN1CCCC(N2CCN(c3cccc(C(F)(F)F)c3)CC2)C1 (stereo not drawn)
4. COc1cccc(Cn2c(Oc3ccccc3)nc3c2c(=O)n(C)c(=O)n3C)c1
5. COc1ccc(-c2noc(-c3cccn3CC(=O)Nc3ccc(C)cc3Cl)n2)cc1F

Response line:
100
87
105
98
104

---

Test system: P. berghei-ANKA-GFP-LucCON liver stage parasites in HepG2-A16-CD81EGFP cells
experiment.description: P. berghei liver stage Pb-Luc assay, Method 1 (UCSD, 1536-well)
Format: cell-based, Plasmodium berghei
assay.conditions: Method 1; Decrease = decreasing P. berghei viability with dose, Increase = increasing signal, Inactive = no dose response
observed.property: Max Resp (signal direction of the dose response)

Prompt line: Give the measured Max Resp (signal direction of the dose response) of OCCNc1nc(Nc2ccc(Br)cc2)nc2ccccc12 [MLS000625070-01] .
Response line: Decrease

Prompt line: Give the measured Max Resp (signal direction of the dose response) of c1ccc(CCNc2ccnc3cc4ccccc4cc23)cc1 [MLS000717866-01] .
Response line: Decrease

Prompt line: Give the measured Max Resp (signal direction of the dose response) of COc1ccc(Nc2cnc3ccc(-c4ccc(OC)c(OC)c4)nn23)cc1 [NCGC00412624-01] .
Response line: Decrease

---

For each of the compounds below, state its activity at 3 µM.
Tested on: P. berghei-ANKA-GFP-LucCON liver stage parasites in HepG2-A16-CD81EGFP cells
experiment.description: P. berghei liver stage Pb-Luc assay, Method 1 (UCSD, 1536-well)
Format: cell-based, Plasmodium berghei
assay.conditions: Plasmodium berghei, 48 h, 3 uM (compounds provided at 10 mM); average of 2 wells on a 1536 well plate; column 8; read-out: Pb-Luc (P. berghei liver stage), % of control, higher concentration, first repeat
Give bare numbers, in %.

Here are 5 compounds together with their reported answers.
Prompt line: Give the measured activity at 3 µM of COc1cc(O)c(C(CCN2CCN(c3ccccc3)CC2)c2cc(OC)c(OC)c(OC)c2)c(OC)c1 (stereo not shown) .
Response line: 84

Prompt line: Give the measured activity at 3 µM of `COc1cccc(CNCC(O)(c2ccc(Cl)cc2)c2ccc(Cl)cc2)c1` .
Response line: 99

Prompt line: Give the measured activity at 3 µM of `CN(CC(=O)Nc1cccc(F)c1)C(=O)c1ccc(-c2cccc(C(F)(F)F)c2)o1` .
Response line: 81

Prompt line: Give the measured activity at 3 µM of `CCOC(=O)CCCCC(=O)c1[nH]c(=O)[nH]c1Cn1ccnc1` .
Response line: 84

Prompt line: Give the measured activity at 3 µM of `CCCN(CCC)CCCN=C(S)Nc1ccc2nc(N3CCCC3)cc(C)c2c1` .
Response line: 67

I'm hoping you can list activity at 3 µM for every compound here, please.
1. CCOC(=O)c1nnn(-c2nonc2N)c1-c1ccc(C)cc1
2. O=c1cc(CSc2ccc(Cl)cc2)nc(-c2ccccn2)[nH]1
3. COc1ccc(C)cc1N(C(=O)COc1cccc(F)c1)c1nc2ccccc2s1

Response line:
[135, 8, 107]

I'm hoping you can list activity at 3 µM for every compound here, please.
1. CC(C)CN(Cc1cc(=O)oc2cc(-c3ccccc3)c(O)cc12)CC(C)C
2. COc1ccc(NC(=O)CN(C)C(=O)c2oc3c(ccc4ccccc43)c2C)cc1

Response line:
1. 59
2. 88

---

Test system: luciferase-expressing P. berghei liver stage parasites in HepG2 cells
experiment.description: Inhibition of liver-stage development assay (ILSDA), Method 2 (WRAIR, 96-well)
Type: cell-based, Plasmodium berghei
assay.conditions: Plasmodium berghei, HepG2, P. berghei liver stage, Method 2, dose response; read-out: Log AC50 (converted)
For each of the compounds below, state its AC50.
Numbers only, in µM.

I'm hoping you can list AC50 for every compound here, please.
1. CCCN1C(c2ccccc2)=NS(=O)(=O)c2cc(NC(=O)c3ccc(F)cc3)ccc21 [NCGC00532331-01]
2. Cc1ccccc1[S+](=O)([O-])N1CCCC(CCC(=O)NCCN(C)C2CCCCC2)C1 (stereo not shown) [NCGC00425745-01]
3. Cc1cc(C)cc(C(=O)Nc2ccc3c(N4CCCC4)ncnc3c2)c1 [NCGC00425487-01]
4. O=C(Nc1ccc2c(N3CCCCC3)ncnc2c1)c1cc(F)cc(F)c1 [NCGC00425525-01]

Response line:
1: 17.8; 2: 0.562; 3: 15.8; 4: 0.398

---

experiment.description: in vitro
assay.conditions: human, hepg2 cells
For each of the molecules below, state its CC50 at 48 h.
Give bare numbers, in µM.

Here are 4 molecules together with their reported answers.
Prompt line: Give the measured CC50 at 48 h of CCN(CC)CCNC(=O)c1ccc(NC(=O)c2ccc(S(=O)(=O)N3CCCCCC3)cc2)cc1 [MLS001157553-01] .
Response line: 34.3

Prompt line: Give the measured CC50 at 48 h of COc1ccc(NC(=O)c2ccc(Cl)c(S(=O)(=O)N3CCc4ccccc4C3)c2)cn1 [MLS000057537-01] .
Response line: 34.3

Prompt line: Give the measured CC50 at 48 h of COc1ccc(C2c3ccc4ccccc4c3Oc3ncn(CCCN(C)C)c(=N)c32)cc1 (centres unmarked) [MLS001216280-01] .
Response line: 34.3

Prompt line: Give the measured CC50 at 48 h of NS(=O)(=O)c1ccc(N/N=C/c2cn(-c3ccccc3)nc2-c2cccs2)cc1 [MLS000393371-01] .
Response line: 21.7

I'm hoping you can list CC50 at 48 h for every molecule here, please.
1. COc1ccc2nc(C)cc(NCc3cccc(C(F)(F)F)c3)c2c1 [MLS001174340-01]
2. Cc1ccc(-c2nn(-c3ccccc3)cc2CSC(=N)N)cc1 [MLS000572993-01]
3. CCCCCn1c(=N)n(CC(O)COc2cccc(C)c2)c2ccccc21 (centres unmarked) [NCGC00101833-01]
4. CN(C)CCNC(=O)c1cc2c(s1)-c1ccc(Cl)cc1SC2 [MLS001198989-01]
5. O[C@H]1[C@H](NCC2CCCCC2)[C@H]2CO[C@H](O2)[C@@H]1N1CCC(Cc2ccccc2)CC1 [NCGC00394729-01]
6. O=C1NC(=S)S/C1=C\C=C\c1ccc([N+](=O)[O-])o1 [MLS000722913-01]
7. N=c1ccn(Cc2ccc(Cl)cc2)cc1 [MLS000080110-01]
8. CCNc1nc(NC(C)(C)C)nc(N2CCCC2)n1 [MLS000528993-01]

Response line:
30.6
43.2
43.2
34.3
49.8
13.7
34.3
43.2

I'm hoping you can list CC50 at 48 h for every molecule here, please.
1. CCN1CCN(c2cc(C)c3cc(NC(=O)/C=C/c4ccc(OCCC(C)C)cc4)ccc3n2)CC1 [NCGC00103856-01]
2. CCOC(=O)CCCOc1cccn2c(=O)c(-c3cc(C)n(-c4ccc(Cl)cc4)n3)c(C)nc12 [NCGC00473250-01]
3. CCc1ccc(NC(=O)C2CCN(c3cc(C(F)(F)F)ncn3)CC2)cc1 [NCGC00455558-01]

Response line:
[30.6, 15.3, 34.3]

I'm hoping you can list CC50 at 48 h for every molecule here, please.
1. CC(C)CN(Cc1cc(=O)oc2cc(-c3ccccc3)c(O)cc12)CC(C)C [MLS000779012-01]
2. Nc1nc(N)c2c(ccc3[nH]ccc32)n1 [MLS000758537-01]

Response line:
1. 43.2
2. 12.2
